- Assay target: T1, soluble human ILT4-ECD (human, UniProt Q8N423 22-460)
- T1 construct: also called LILRB2 extracellular domain
- T1 sequence (Q8N423 other isoform, or with tags, fused parts or gaps): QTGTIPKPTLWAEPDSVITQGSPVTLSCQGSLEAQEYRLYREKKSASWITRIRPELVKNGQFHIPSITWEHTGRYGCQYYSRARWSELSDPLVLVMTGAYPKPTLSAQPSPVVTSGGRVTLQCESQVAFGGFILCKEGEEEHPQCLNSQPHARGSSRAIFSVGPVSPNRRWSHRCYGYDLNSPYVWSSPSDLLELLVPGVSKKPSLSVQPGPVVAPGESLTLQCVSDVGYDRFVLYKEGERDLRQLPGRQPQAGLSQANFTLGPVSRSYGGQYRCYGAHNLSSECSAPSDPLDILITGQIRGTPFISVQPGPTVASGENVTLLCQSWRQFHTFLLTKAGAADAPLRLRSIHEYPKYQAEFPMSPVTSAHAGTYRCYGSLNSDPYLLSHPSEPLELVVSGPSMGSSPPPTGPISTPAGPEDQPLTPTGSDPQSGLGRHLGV
- Test details: SPR (Biacore) as described in Example 3
Readout type: koff (s⁻¹)
// return numeric value only (unit: s⁻¹, not printed)

Binder: anti-ILT2/ILT4 antibody 47H6 (antibody, V domains shown, Mouse hybridoma antibody) VH: EVQLQQSGPELVKPGASVKISCKASGYTFTDYYMNWVKQSHGKSLEWIGDFNPNNGGTTYNQKFEGKATLTVDKSSNTAYMDLRSLTSEDSAVYYCARGRFYYGSLYSFDYWGQGTTLTVSS VL: DIQMTQSPASLSASVGETVTITCRASGNIHNYLAWYQQKQGKSPHLLVYNAKTLADGVPSRFSGSGSGTQYSLKINNLQPEDFGSYYCQHFWTSITFGAGTKLDLK
Unit string: s⁻¹
Reading: 2.1e-05
--
Binder: humanized anti-ILT2/ILT4 antibody Hz73D1.v1 (antibody, human IgG1, kappa, N297G, V domains shown, Human IgG1 constant region with G at position 297, human kappa; also called Hz73D1.vi) VH: QVQLVQSGAEVKKPGASVKVSCKASGYTFTDYYINWVRQAPGQGLEWMGNVNPNDGGTTYNQKFKGRVTMTTDTSTSTAYMELRSLRSDDTAVYYCARREIYFYGTIYYYAMDYWGQGTLVTVSS VL: DIQLTQSPSFLSASVGDRVTITCRASESVDYYGNSFMYWYQQKPGKAPKLLIYFASNLESGVPSRFSGSGSGTEFTLTISSLQPEDFATYYCQQNNEDPWTFGGGTKVEIKR
Unit string: s⁻¹
Reading: 0.00027
--
Binder: humanized anti-ILT2/ILT4 antibody Hz47H6.v2 (antibody, human IgG1, kappa, N297G, V domains shown) VH: QVQLVQSGAEVKKPGASVKVSCKASGYTFTDYYMNWVRQAPGQRLEWIGDFNPNNAGTTYNQKFEGRVTITVDKSASTAYMELSSLRSEDTAVYYCARGRFYYGSLYSFDYWGQGTLVTVSS VL: DIQMTQSPSSLSASVGDRVTITCRASGNIHNYLAWYQQKPGKAPKLLIYNAKTLADGVPSRFSGSGSGTDFTLTISSLQPEDFATYYCQHFWTSITFGPGTKVDIKR
Unit string: s⁻¹
Reading: 0.00018

Next, consider the following binder.
Briefly, koff measured for anti-ILT2/ILT4 antibody 73D1 (antibody, V domains shown, Mouse hybridoma antibody; Shares its light chain variable region with 73C4) VH: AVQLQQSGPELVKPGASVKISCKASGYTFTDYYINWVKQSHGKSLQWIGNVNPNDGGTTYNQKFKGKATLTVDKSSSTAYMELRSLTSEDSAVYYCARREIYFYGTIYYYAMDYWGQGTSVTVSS VL: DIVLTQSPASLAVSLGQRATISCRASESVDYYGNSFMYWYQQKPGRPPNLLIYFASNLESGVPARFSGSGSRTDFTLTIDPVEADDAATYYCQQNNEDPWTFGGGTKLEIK : 0.0003
